For each of the compounds below, state its AUC.
experiment: Area under curve value of compound per hour after oral administration; type: ADME
Numbers only, in ng·h/mL.

# compound, measured-endpoint, endpoint-value
records = [
    ("CCn1cc(C(=O)O)c(=O)c2cc(F)c(N3CCNCC3)cc21 [NORFLOXACIN]", "AUC", 1800),
    ("CCn1cc(C(=O)O)c(=O)c2cc(F)c(N3CCN(Cc4oc(=O)oc4C)CC3)cc21", "AUC", 5700),
]

// moving on: another record for AUC
Exam item: Sample C=C1OC(=O)OC1(C)ON1CCN(c2cc3c(cc2F)c(=O)c(C(=O)O)cn3CC)CC1 (stereo not drawn) — what was its AUC?
Marked response: 5400

# credit: ChEMBL document CHEMBL1124427
